# system_tested: T1, soluble Homo sapiens CD131 comprising a C-terminal 6xHis tag (human, UniProt P32927 17-438)
# T1 construct: truncated after Ser438, C-terminal 6xHis; also called shCD131; shβc
# T1 sequence: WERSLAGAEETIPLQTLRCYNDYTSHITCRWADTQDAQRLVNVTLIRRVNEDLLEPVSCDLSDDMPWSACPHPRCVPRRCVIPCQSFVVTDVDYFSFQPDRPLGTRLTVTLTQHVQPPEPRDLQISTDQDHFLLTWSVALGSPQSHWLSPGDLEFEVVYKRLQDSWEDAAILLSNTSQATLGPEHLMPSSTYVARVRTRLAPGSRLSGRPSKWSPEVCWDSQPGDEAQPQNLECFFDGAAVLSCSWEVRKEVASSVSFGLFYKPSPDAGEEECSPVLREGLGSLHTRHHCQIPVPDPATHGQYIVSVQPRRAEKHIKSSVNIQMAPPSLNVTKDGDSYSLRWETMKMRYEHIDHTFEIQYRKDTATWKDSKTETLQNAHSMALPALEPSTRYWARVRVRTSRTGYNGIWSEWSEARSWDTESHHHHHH
# test_description: SPR, Fab over captured shCD131
# Protocol: Binding kinetics were measured using SPR with a BIAcore™ A-100 instrument (GE Healthcare Life Sciences). […] shCD131 was captured on spots 1 and 5 of each flow cell for 2 minutes at a concentration of 0.4 μg/ml. […] For some analysis purified Fab was injected over each flow cell for 3 minutes and dissociation was monitored for a further 10 minutes. […] The analysis was performed with Fabs at several concentrations between 100 and 0.31 nM, with each concentration analyzed twice and in random order. […]
measured_quantity: pKd
Convention used: pKd is expressed as -log10 of the molar concentration.

>  <binder>
9A2-VR32 Fab (Fab, V domains shown, recombinant Fab) VH: EVQLLESGGGLVQPGGSLRLSCAASGFTFSHYHMLWVRQAPGKGLEWVSSISGSVRSTYYADSVKGRFTISRDNSKNTLYLQMNSLRAEDTAVYYCARFYDSFFDIWGQGTMVTVSS VL: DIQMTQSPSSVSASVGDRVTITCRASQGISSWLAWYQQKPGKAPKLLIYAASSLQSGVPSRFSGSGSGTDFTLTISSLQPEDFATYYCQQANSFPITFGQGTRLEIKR

>  <pKd>
9.47

$$$$

--- query ---
## Task Reported pKd, binder 9A2-VR20 Fab (Fab, V domains shown, recombinant Fab) VH: EVQLLESGGGLVQPGGSLRLSCAASGFTFNHYRVHWVRQAPGKGLEWVSSIRSSGGFTYYADSVKGRFTISRDNSKNTLYLQMNSLRAEDTAVYYCARFYDSFFDIWGQGTMVTVSS VL: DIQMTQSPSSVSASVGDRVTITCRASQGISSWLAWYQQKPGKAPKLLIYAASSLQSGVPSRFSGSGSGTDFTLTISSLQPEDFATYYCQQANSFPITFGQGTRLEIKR : ____
## Result 9.24
